Measured PBM binding z-score, listed per entry for reference.
- Test system: THRa:RXRa (NR concentration 90 nM, RXRa partner concentration 90 nM)
- protocol-summary: PBM binding z-score (relative to random genomic background probes); higher = stronger binding; sequences stand for … in GC…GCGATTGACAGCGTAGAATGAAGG
# respond with the number and nothing more

| seq-text | system-name | PBM binding z-score |
| --- | --- | --- |
| GATACAGGGTCAGCTAGAGGCCAGAGTGTGGAAA | THRa:RXRa (NR concentration 90 nM, RXRa partner concentration 90 nM) | 3.15 |
| TTACCAAGGTGTAGGTCGTTGATCCCTCTGTAGA | THRa:RXRa (NR concentration 90 nM, RXRa partner concentration 90 nM) | 0.442 |
| AGTATGAGGTTACCAAAGATCAGGGAAACGCTTG | THRa:RXRa (NR concentration 90 nM, RXRa partner concentration 90 nM) | 2.87 |
| GCTGCTAGGTCAGATTGGTCAGCTAACGGGTACG | THRa:RXRa (NR concentration 90 nM, RXRa partner concentration 90 nM) | 1.73 |
| TCTTGTAGATCAATAGAGCTTAAGAAAGTGCGCT | THRa:RXRa (NR concentration 90 nM, RXRa partner concentration 90 nM) | -0.676 |
| AGAACGAGGGCAATGAGTAGATAGCACGGGTGGC | THRa:RXRa (NR concentration 90 nM, RXRa partner concentration 90 nM) | 0.671 |
| TATTGTAGATCAACAGGAGGTTAAGAAAGATCGA | THRa:RXRa (NR concentration 90 nM, RXRa partner concentration 90 nM) | 1.23 |
| CGTCCAAGGTCAATGCTGGGTCAGTGAAAGCATT | THRa:RXRa (NR concentration 90 nM, RXRa partner concentration 90 nM) | 4.28 |

Q. Name the recorded PBM binding z-score of the sequence listed here: GATACAGGGTCAAGGCCACAGTACGCGTATTGAT
A. 3.69

Q. Name the recorded PBM binding z-score of the sequence listed here: ATCTCTAGGTAAGAAGTTCAGTGAAAGAGAGGAC
A. 0.982

Q. Name the recorded PBM binding z-score of the sequence listed here: ACTATTAGTTGAGACGAGGGCAAACGATAGGTTG
A. 2.42

Q. Name the recorded PBM binding z-score of the sequence listed here: CGAACTAGGTCAGAACGGGACAGTGAAGGATGAT
A. 2.84

Q. Name the recorded PBM binding z-score of the sequence listed here: CGAACTAGGACATTGACAGGACAGTGAATAGTAA
A. 0.858

The reported measurements were obtained from the supplement of paper PMC6555819.
